Taken from ChEMBL document CHEMBL2007661.

tested.system: UniProtKB Q12866
Sequence (whole entry): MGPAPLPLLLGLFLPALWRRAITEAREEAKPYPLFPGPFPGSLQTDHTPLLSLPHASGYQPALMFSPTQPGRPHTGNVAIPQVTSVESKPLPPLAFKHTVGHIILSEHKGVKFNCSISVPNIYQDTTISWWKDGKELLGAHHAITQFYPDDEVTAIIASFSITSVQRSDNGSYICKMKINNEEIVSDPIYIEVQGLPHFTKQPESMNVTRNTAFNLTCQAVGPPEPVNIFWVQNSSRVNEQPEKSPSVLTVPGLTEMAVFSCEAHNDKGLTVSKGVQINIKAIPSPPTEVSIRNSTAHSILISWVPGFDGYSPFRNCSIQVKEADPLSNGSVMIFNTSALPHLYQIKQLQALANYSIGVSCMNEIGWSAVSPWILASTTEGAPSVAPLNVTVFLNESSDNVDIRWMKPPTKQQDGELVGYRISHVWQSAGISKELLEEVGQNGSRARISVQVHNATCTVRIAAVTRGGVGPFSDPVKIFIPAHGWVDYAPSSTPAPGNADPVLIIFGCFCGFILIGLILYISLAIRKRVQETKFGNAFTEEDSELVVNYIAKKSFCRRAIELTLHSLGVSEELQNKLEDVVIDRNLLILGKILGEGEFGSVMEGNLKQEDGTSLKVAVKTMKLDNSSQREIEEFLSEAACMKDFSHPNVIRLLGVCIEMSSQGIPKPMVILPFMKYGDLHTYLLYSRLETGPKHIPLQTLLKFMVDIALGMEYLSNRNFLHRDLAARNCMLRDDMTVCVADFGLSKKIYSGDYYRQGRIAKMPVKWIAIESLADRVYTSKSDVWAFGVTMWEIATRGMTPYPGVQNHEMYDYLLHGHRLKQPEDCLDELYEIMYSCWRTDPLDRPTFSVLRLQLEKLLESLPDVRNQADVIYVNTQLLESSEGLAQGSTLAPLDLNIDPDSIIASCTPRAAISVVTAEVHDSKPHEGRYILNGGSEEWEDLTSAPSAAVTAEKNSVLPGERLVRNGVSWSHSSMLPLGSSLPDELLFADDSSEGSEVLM
conditions.used: at 10 µM
value.type: inhibition (%)

COc1cc(Nc2ncc(-c3ccccc3)o2)cc(OC)c1OC ... 68
CCn1c(-c2nonc2N)nc2c(C#CC(C)(C)O)nc(O[C@@H](CN)c3ccccc3)cc21 ... -9
COc1cc2ncn(-c3cc(OCc4ccccc4C(F)(F)F)c(C(C)=O)s3)c2cc1OC ... -1
NC(=O)c1sc(-n2cnc3cc(C(F)(F)F)ccc32)cc1OCc1ccccc1Br ... 6
NC(=O)Cc1ccccc1Oc1nccc(-c2c(-c3ccc(F)cc3)ncn2C2CCNCC2)n1 ... 71

(a) COc1cc(N2CCN(C(C)C)CC2)ccc1Nc1nc(Nc2ccc(F)cc2C(=O)NC[C@@H](O)CO)c2cc[nH]c2n1
(b) CCn1c(-c2nonc2N)nc2ccncc21
Q. Which record would sort first by descending inhibition, a or b ? State your choice using its label.
A. b

----------
tested.system: Tyrosine-protein kinase Mer (Homo sapiens) (UniProt Q12866)
conditions.used: at 10 µM
value.type: inhibition (%)

Use the examples below as a reference point.
CS(=O)(=O)CCNCc1nc(-c2ccc3ncnc(Nc4ccc(F)c(Cl)c4)c3c2)cs1 ... -6
Nc1nc(-c2ccccn2)c(-c2ccc3ncccc3n2)s1 ... -5

(P) COC(=O)c1sc(-n2cnc3cc(OC)c(OC)cc32)cc1OCc1ccccc1C(F)(F)F
(Q) COc1cc(Nc2ncc3c(C)nc(-c4cccc(Oc5ccccc5)c4)n3n2)cc(OC)c1OC
(R) CS(=O)(=O)Nc1ccc(-c2cc(-c3ccccc3)cc(C(N)=O)c2N)cc1
(S) c1ccc(Oc2ccc(Nc3ncc(-c4ccccc4)o3)cc2)cc1
Q. Place the items in sequence of falling inhibition. In plain terms: list the labels in the order you were asked to.
A. S, P, R, Q
